// provenance: ChEMBL document CHEMBL4359837

assay: Growth inhibition of mouse BAF3 cells measured after 72 hrs by CCK8 assay; format: cell-based
The entries below are paired with their reported GI50 at 72 h.
Measured property: GI50 at 72 h (µM)

INSERT INTO assay_data (smiles_data, value_prefix, readout_value) VALUES
  ('COc1cc2nccc(Oc3ccc(NC(=O)Cc4ccc(Cl)c(C(F)(F)F)c4)cc3OC)c2cc1OC', '=', 8.48),
  ('COc1cc2nccc(Oc3ccc(NC(=O)Cc4ccc(Cl)c(C(F)(F)F)c4)cc3)c2cc1OC', '=', 5.97),
  ('COc1cc2nccc(Oc3ccc(NC(=O)Cc4ccc(F)cc4F)cc3)c2cc1OC', '=', 0.704),
  ('COc1cc2nccc(Oc3ccc(C(=O)NCc4cccc(C(F)(F)F)c4)cc3)c2cc1OC', '=', 10),
  ('COc1cc2nccc(Oc3ccc(NC(=O)Cc4ccc5ccccc5c4)cc3)c2cc1OC', '=', 6.23),
  ('COc1cc2nccc(Oc3ccc(NC(=O)Cc4ccccc4)cc3)c2cc1OC', '>', 10),
  ('Cc1ccc(NC(=O)c2ccc(CN3CCN(C)CC3)cc2)cc1Nc1nccc(-c2cccnc2)n1', '>', 10),
  ('COc1cc2nccc(Oc3ccc(NC(=O)Cc4ccc(Cl)c(C(F)(F)F)c4)cc3Cl)c2cc1OC', '=', 9.45),
  ('COc1cc2nccc(Oc3ccc(NC(=O)Cc4ccncc4)cc3)c2cc1OC', '=', 5.13);

---

tested on: Mast/stem cell growth factor receptor Kit (Homo sapiens), P10721 [T670I]; conditions: Mus musculus
Sequence (P10721 whole entry T670I): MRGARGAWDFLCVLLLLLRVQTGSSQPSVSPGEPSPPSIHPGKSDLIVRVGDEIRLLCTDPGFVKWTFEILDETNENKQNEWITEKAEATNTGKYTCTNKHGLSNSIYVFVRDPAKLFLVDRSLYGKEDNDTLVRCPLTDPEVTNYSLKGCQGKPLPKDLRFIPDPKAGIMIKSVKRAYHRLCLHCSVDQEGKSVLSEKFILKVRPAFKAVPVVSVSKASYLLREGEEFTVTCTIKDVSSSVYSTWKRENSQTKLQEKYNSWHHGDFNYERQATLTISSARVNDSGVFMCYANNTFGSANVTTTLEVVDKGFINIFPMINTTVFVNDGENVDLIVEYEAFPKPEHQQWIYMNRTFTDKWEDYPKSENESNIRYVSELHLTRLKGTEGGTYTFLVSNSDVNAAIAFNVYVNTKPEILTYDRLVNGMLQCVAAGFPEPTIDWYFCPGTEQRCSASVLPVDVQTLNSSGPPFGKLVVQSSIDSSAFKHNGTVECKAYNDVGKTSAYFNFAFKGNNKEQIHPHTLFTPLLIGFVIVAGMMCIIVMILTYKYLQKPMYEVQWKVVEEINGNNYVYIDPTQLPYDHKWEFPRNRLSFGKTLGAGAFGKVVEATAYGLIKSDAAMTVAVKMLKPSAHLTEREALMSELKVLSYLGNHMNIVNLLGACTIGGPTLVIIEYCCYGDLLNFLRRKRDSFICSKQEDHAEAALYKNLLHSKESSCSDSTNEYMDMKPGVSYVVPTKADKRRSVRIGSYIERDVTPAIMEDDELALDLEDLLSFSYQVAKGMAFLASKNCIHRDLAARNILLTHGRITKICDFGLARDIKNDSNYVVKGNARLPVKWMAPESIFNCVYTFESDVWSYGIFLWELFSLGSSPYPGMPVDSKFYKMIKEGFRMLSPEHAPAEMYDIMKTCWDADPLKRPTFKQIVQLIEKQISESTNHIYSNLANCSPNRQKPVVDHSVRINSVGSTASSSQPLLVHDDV
Description: Inhibition of c-KIT T670I mutant in mouse BAF3(transformed) cells assessed as growth inhibition after 72 hrs by CCK8 assay
Measured property: GI50

INSERT INTO results (smiles_data, measured_property, readout_value) VALUES
  ('COc1cc2nccc(Oc3ccc(NC(=O)Cc4ccc(Cl)c(C(F)(F)F)c4)cc3Cl)c2cc1OC', 'GI50', '56 nM'),
  ('COc1cc2nccc(Sc3ccc(NC(=O)Cc4ccc(Cl)c(C(F)(F)F)c4)cc3)c2cc1OC', 'GI50', '110 nM'),
  ('COc1cc2nccc(Oc3ccc(NC(=O)Cc4ccc(F)c(C(F)(F)F)c4)cc3)c2cc1OC', 'GI50', '13 nM'),
  ('COc1cc2nccc(Oc3ccc(NC(=O)Cc4ccc(C(F)(F)F)cc4)cc3)c2cc1OC', 'GI50', '11 nM'),
  ('COc1cc2nccc(Oc3ccc(NC(=O)Cc4ccc(Cl)c(C(F)(F)F)c4)c(C)c3)c2cc1OC', 'GI50', '75 nM');

---

assay: Growth inhibition of mouse BAF3 cells measured after 72 hrs by CCK8 assay; format: cell-based
Consider the following partition of reported GI50 at 72 h into named classes: lower segment = under 2 µM, middle segment = from 2 µM up to 5 µM, upper segment = 5 µM and over

INSERT INTO assay_data (smiles_data, label) VALUES
  ('COc1cc2nccc(Oc3ccc(NC(=O)Cc4ccc(Cl)c(C(F)(F)F)c4)c(F)c3)c2cc1OC', 'middle segment'),
  ('CCN(CC)CCNC(=O)c1c(C)[nH]c(/C=C2\C(=O)Nc3ccc(F)cc32)c1C', 'lower segment'),
  ('CCC(=O)NCC1CCN(c2ccc(NC(=O)Nc3cccc(Oc4ccnc5cc(OC)c(OC)cc45)c3)cc2C(F)(F)F)CC1', 'upper segment'),
  ('COc1cc2nccc(Oc3ccc(NC(=O)Cc4ccc(C(F)(F)F)cc4)cc3)c2cc1OC', 'middle segment'),
  ('COc1cc2nccc(Nc3ccc(NC(=O)Cc4ccc(Cl)c(C(F)(F)F)c4)cc3)c2cc1OC', 'middle segment'),
  ('COc1cc2nccc(Oc3ccc(NC(=O)Cc4ccc5c(c4)OCO5)cc3)c2cc1OC', 'middle segment'),
  ('COc1cc2nccc(N(C)c3ccc(NC(=O)Cc4ccc(Cl)c(C(F)(F)F)c4)cc3)c2cc1OC', 'middle segment'),
  ('COc1cc2nccc(Oc3ccc(NC(=O)Cc4ccc(C)c(C(F)(F)F)c4)cc3)c2cc1OC', 'upper segment'),
  ('COc1cc2nccc(Oc3ccc(NC(=O)Cc4ccc(Cl)c(C(F)(F)F)c4)cc3C#N)c2cc1OC', 'upper segment'),
  ('COc1cc2nccc(Sc3ccc(NC(=O)Cc4ccc(Cl)c(C(F)(F)F)c4)cc3)c2cc1OC', 'middle segment'),
  ('COc1cc2nccc(Oc3ccc(NC(=O)Cc4c(F)cccc4F)cc3)c2cc1OC', 'lower segment'),
  ('COc1cc2nccc(Oc3ccc(NC(=O)Cc4ccc(F)c(F)c4)cc3)c2cc1OC', 'lower segment'),
  ('COc1cc2nccc(Oc3ccc(NC(=O)Cc4ccc(Cl)c(C(F)(F)F)c4)cc3C)c2cc1OC', 'upper segment'),
  ('COc1cc2nccc(Oc3ccc(NC(=O)Cc4ccc(C)c(C)c4)cc3)c2cc1OC', 'upper segment'),
  ('COc1cc2nccc(Oc3ccc(NC(=O)Cc4cccc(C(F)(F)F)c4)cc3)c2cc1OC', 'lower segment'),
  ('COc1cc2nccc(Oc3ccc(NC(=O)Cc4ccccc4C(F)(F)F)cc3)c2cc1OC', 'upper segment'),
  ('COc1cc2nccc(Oc3ccc(NC(=O)C4(c5ccccc5)CC4)cc3)c2cc1OC', 'upper segment'),
  ('COc1cccc(CC(=O)Nc2ccc(Oc3ccnc4cc(OC)c(OC)cc34)cc2)c1', 'middle segment'),
  ('COc1cc2nccc(Oc3ccc(NC(=O)Cc4ccc(Cl)c(C(F)(F)F)c4)cc3C(F)(F)F)c2cc1OC', 'middle segment'),
  ('COc1cc2nccc(Oc3ccc(NC(=O)Cc4ccc(F)c(C(F)(F)F)c4)cc3)c2cc1OC', 'lower segment'),
  ('COc1cc2nccc(Oc3ccc(NC(=O)Cc4cccc(F)c4)cc3)c2cc1OC', 'lower segment'),
  ('COc1cc2nccc(Oc3ccc(C(=O)NCc4ccc(C(F)(F)F)cc4)cc3)c2cc1OC', 'upper segment'),
  ('COc1cc2nccc(Oc3ccc(NC(=O)Cc4ccc(Cl)c(C(F)(F)F)c4)c(Cl)c3)c2cc1OC', 'upper segment'),
  ('COc1cc2nccc(Oc3ccc(NC(=O)CN4CCN(C)CC4)cc3)c2cc1OC', 'upper segment'),
  ('COc1ccc(CC(=O)Nc2ccc(Oc3ccnc4cc(OC)c(OC)cc34)cc2)cc1OC', 'middle segment'),
  ('COc1cc2nccc(Oc3ccc(NC(=O)CC4CCCCC4)cc3)c2cc1OC', 'middle segment');
